tested on: LX-2; experiment: Antifibrotic activity against TGFbeta-1 induced human LX-2 cells assessed as inhibition of COL1A1 mRNA expression at 1 uM incubated for 24 hrs by qRT-PCR analysis relative to control; format: functional; design: scale not given: the % may be the effect or the level left
Use condition met when the recorded Activity is no lower than 40%; use condition not met when it is lower.

// inclusive: Activity at least 40%? input: CC(=O)OC[C@H](CCCCNC(=O)c1cccc(O)c1O)NC(=O)c1cccc(O)c1O
condition not met

// inclusive: Activity at least 40%? input: O=C(Cc1ccccc1)OC[C@H](CCCCNC(=O)c1cccc(O)c1O)NC(=O)c1cccc(O)c1O
condition met

// inclusive: Activity at least 40%? input: CCC(=O)OC[C@H](CCCCNC(=O)c1cccc(O)c1O)NC(=O)c1cccc(O)c1O
condition met

// inclusive: Activity at least 40%? input: O=C(Cc1ccccc1)OC[C@H](CCCCNC(=O)c1cccc(O)c1O)NC(=O)c1cccnc1
condition not met

// inclusive: Activity at least 40%? input: O=C(Cc1ccc(O)cc1)OC[C@H](CCCCNC(=O)c1cccc(O)c1O)NC(=O)c1cccc(O)c1O
condition not met

// inclusive: Activity at least 40%? input: CC(C)C(=O)OC[C@H](CCCCNC(=O)c1cccc(O)c1O)NC(=O)c1cccc(O)c1O
condition met
